Attribute: IC50
# experimental-target: menin/MLL (terbium chelate-labeled menin, FITC-MBM1 peptide) (Homo sapiens, UniProt O00255, T541A)
# Construct: Menin (a.a 1-610-6xhis tag)
# Sequence (O00255 with tags, fused parts or gaps T541A): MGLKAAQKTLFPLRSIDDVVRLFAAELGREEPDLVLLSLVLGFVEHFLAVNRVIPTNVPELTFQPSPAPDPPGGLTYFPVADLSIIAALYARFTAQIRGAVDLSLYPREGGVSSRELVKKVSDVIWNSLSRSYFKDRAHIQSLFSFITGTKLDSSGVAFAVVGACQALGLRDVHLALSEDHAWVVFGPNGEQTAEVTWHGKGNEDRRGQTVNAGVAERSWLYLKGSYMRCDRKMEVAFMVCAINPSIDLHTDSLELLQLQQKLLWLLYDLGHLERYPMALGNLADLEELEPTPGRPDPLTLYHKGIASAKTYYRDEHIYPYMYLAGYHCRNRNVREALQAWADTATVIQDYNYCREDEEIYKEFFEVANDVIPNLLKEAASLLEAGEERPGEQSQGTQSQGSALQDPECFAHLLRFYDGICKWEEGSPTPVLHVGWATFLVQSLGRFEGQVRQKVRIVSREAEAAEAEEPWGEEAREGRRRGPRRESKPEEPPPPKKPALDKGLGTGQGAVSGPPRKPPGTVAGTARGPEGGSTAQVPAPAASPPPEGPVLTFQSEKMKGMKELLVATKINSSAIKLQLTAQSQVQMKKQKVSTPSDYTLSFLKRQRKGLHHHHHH
# protocol: Menin/MLL homogenous time-resolved fluorescence (HTRF) assay
# run-conditions: 30 min incubation
readout-kind: IC50

* CC(C)C([C@H]1C[C@@H](N2CCC(O)CC2)C1)N1CC2(CCN(c3ncnnc3Oc3ccc(F)cc3-c3cncnc3C3CC3)C2)C1 (stereo partly drawn) | 0.1 nM
* CC(C)C([C@H]1C[C@@H](N2CCOCC2)C1)N1CC2(CCN(c3ncnnc3Oc3ccc(F)cc3-c3cncnc3C3CC3)C2)C1 (stereo partly drawn) | 0.3 nM
* CC(C)[C@H]([C@H]1C[C@@H](N2C[C@H]3C[C@@H]2CO3)C1)N1CC2(CCN(c3ncnnc3Oc3ccc(F)cc3-c3cncnc3C3CC3)C2)C1 (single isomer, unassigned) | 0.1 nM

* * *

# Test system: MOLM14 cells
# protocol: Proliferation assay, spheroid-like growth, MOLM14 (MLL-AF9 rearranged)
# Assay type: cell-based, human
# run-conditions: Homo sapiens, MOLM-14, 192 h, 8 days, confluence as measure of spheroid size, read-out: spheroid assay_OneTime MOLM14 IC50
pIC50: −log10 of the molar value.
Label scheme, based on pIC50: category 1 = under 7, category 2 = from 7 up to 8, category 3 = 8 and over

• CC(C)C([C@H]1C[C@H](N2CC3(COC3)C2)C1)N1CC2(CCN(c3ncnnc3Oc3ccc(F)cc3-c3ncc(C#N)cc3C3CC3)C2)C1 (stereo partly drawn) = category 1
• CO[C@@H]1CCN([C@H]2C[C@@H]([C@@H](C(C)C)N3CC4(CCN(c5ncnnc5Oc5ccc(F)cc5-c5cncnc5C5CC5)C4)C3)C2)C1 (single isomer, unassigned) = category 3
• CC(C)[C@H]([C@H]1C[C@H](N2CCC(C)(C(=O)N(C)C)CC2)C1)N1CC2(CCN(c3ncnnc3Oc3ccc(F)cc3-c3cncnc3C3CC3)C2)C1 (single isomer, unassigned) = category 2
• Cc1ncc(-c2cc(F)ccc2Oc2nncnc2N2CCC3(C2)CN([C@@H](C(C)C)[C@H]2C[C@@H](N4CC[C@H](C(=O)NC5CC5)C4)C2)C3)c(C2CC2)n1 = category 3
• CC(C)C([C@H]1C[C@H](N2C[C@H]3COC[C@H]3C2)C1)N1CC2(CCN(c3ncnnc3Oc3ccc(F)cc3-c3cnccc3C3CC3)C2)C1 (stereo partly drawn) = category 2
• Cc1ncc(-c2cc(F)ccc2Oc2nncnc2N2CCC3(C2)CN([C@@H](C(C)C)[C@H]2C[C@@H](N4C[C@H]5COC[C@H]5C4)C2)C3)c(C2CC2)n1 = category 3
• CC(=O)N1CC2(C1)CN([C@H]1C[C@H]([C@H](C(C)C)N3CC4(CCN(c5ncnnc5Oc5ccc(F)cc5-c5cnc(C)cc5C5CC5)C4)C3)C1)C2 (single isomer, unassigned) = category 2
• CC(C)[C@H]([C@H]1C[C@@H](N2CC3(CCCO3)C2)C1)N1CC2(CCN(c3ncnnc3Oc3ccc(F)cc3-c3cncnc3C3CC3)C2)C1 (single isomer, unassigned) = category 1
• CC(=O)N[C@H]1C[C@@H](C(C(C)C)N2CC3(CCN(c4ncnnc4Oc4ccc(F)cc4-c4cncnc4C4CC4)C3)C2)C1 (stereo partly drawn) = category 2
• CC(C)[C@H]([C@H]1C[C@H](N2CCNC(=O)C2)C1)N1CC2(CCN(c3ncnnc3Oc3ccc(F)cc3-c3cncnc3C3CC3)C2)C1 (single isomer, unassigned) = category 1
